Values compiled from ChEMBL document CHEMBL1681743.

Measurement Notes: Half life in BALB/c mouse at 5 mg/kg, iv
Type: ADME, organism-based
Set-up: dose 5 mg/kg, route intravenous
Test Conditions: in vivo
Counter-ions that a name gives are not always drawn.
Field: half-life. Provide a value for each of the compounds that follow.
Answers are plain numbers, in min.

List half-life for every entry below, keeping the order given.
1. C=C1C[C@@H]2CC[C@@]34C[C@H]5O[C@H]6[C@@H](O3)[C@H]3O[C@H](CC[C@@H]3O[C@H]6[C@H]5O4)CC(=O)C[C@@H]3[C@@H](OC)[C@@H](C[C@H](O)CN)O[C@H]3C[C@H]3O[C@@H](CC[C@@H]1O2)C[C@@H](C)C3=C [ERIBULIN MESYLATE]
2. C=C1C[C@@H]2CC[C@@]34C[C@H]5O[C@H]6[C@@H](O3)[C@H]3O[C@H](CC[C@@H]3O[C@H]6[C@H]5O4)CC(=O)C[C@@H]3[C@@H](OC)[C@@H](C[C@@H](CN4CC(C)CC(C)C4)OC)O[C@H]3C[C@H]3O[C@@H](CC[C@@H]1O2)C[C@@H](C)C3=C (stereo not given in full)
3. C=C(C)CN1CCO[C@@H](C[C@H]2O[C@H]3C[C@H]4O[C@@H](CC[C@@H]5O[C@@H](CC[C@@]67C[C@H]8O[C@H]9[C@@H](O6)[C@H]6O[C@H](CC[C@@H]6O[C@H]9[C@H]8O7)CC(=O)C[C@@H]3[C@H]2OC)CC5=C)C[C@@H](C)C4=C)C1
4. C=C1C[C@@H]2CC[C@@]34C[C@H]5O[C@H]6[C@@H](O3)[C@H]3O[C@H](CC[C@@H]3O[C@H]6[C@H]5O4)CC(=O)C[C@@H]3[C@@H](OC)[C@@H](CCCN4CCOCC4)O[C@H]3C[C@H]3O[C@@H](CC[C@@H]1O2)C[C@@H](C)C3=C
5. C=C1C[C@@H]2CC[C@@]34C[C@H]5O[C@H]6[C@@H](O3)[C@H]3O[C@H](CC[C@@H]3O[C@H]6[C@H]5O4)CC(=O)C[C@@H]3[C@@H](OC)[C@@H](C[C@@H](CN4CCOCC4)OC)O[C@H]3C[C@H]3O[C@@H](CC[C@@H]1O2)C[C@@H](C)C3=C

1. 2760
2. 318
3. 72
4. 276
5. 54

====

Measurement Notes: Brain penetration index, ratio of AUC (0 to infinity) in brain to plasma of BALB/c mouse at 5 mg/kg, iv
Format: ADME, organism-based
Design: dose 5 mg/kg, route intravenous
Counter-ions that a name gives are not always drawn.
Respond with Met for Ratio AUC values of 2 mL/g and above, Not met for values below.

Here's what some known entries look like.
- Compound: "C=C(C)CN1CCO[C@@H](C[C@H]2O[C@H]3C[C@H]4O[C@@H](CC[C@@H]5O[C@@H](CC[C@@]67C[C@H]8O[C@H]9[C@@H](O6)[C@H]6O[C@H](CC[C@@H]6O[C@H]9[C@H]8O7)CC(=O)C[C@@H]3[C@H]2OC)CC5=C)C[C@@H](C)C4=C)C1"
  Discrete Label: "Not met"
- Compound: "C=C1C[C@@H]2CC[C@@]34C[C@H]5O[C@H]6[C@@H](O3)[C@H]3O[C@H](CC[C@@H]3O[C@H]6[C@H]5O4)CC(=O)C[C@@H]3[C@@H](OC)[C@@H](C[C@@H](CN4CC(C)CC(C)C4)OC)O[C@H]3C[C@H]3O[C@@H](CC[C@@H]1O2)C[C@@H](C)C3=C (stereo not given in full)"
  Discrete Label: "Not met"
- Compound: "C=C1C[C@@H]2CC[C@@]34C[C@H]5O[C@H]6[C@@H](O3)[C@H]3O[C@H](CC[C@@H]3O[C@H]6[C@H]5O4)CC(=O)C[C@@H]3[C@@H](OC)[C@@H](CCCN4CCOCC4)O[C@H]3C[C@H]3O[C@@H](CC[C@@H]1O2)C[C@@H](C)C3=C"
  Discrete Label: "Met"

Kindly determine if Ratio AUC recorded for "C=C1C[C@@H]2CC[C@@]34C[C@H]5O[C@H]6[C@@H](O3)[C@H]3O[C@H](CC[C@@H]3O[C@H]6[C@H]5O4)CC(=O)C[C@@H]3[C@@H](OC)[C@@H](C[C@@H](CN4CCOCC4)OC)O[C@H]3C[C@H]3O[C@@H](CC[C@@H]1O2)C[C@@H](C)C3=C" is above or exactly 2 mL/g.
Not met

Proceed to C=C1C[C@@H]2CC[C@@]34C[C@H]5O[C@H]6[C@@H](O3)[C@H]3O[C@H](CC[C@@H]3O[C@H]6[C@H]5O4)CC(=O)C[C@@H]3[C@@H](OC)[C@@H](C[C@H](O)CN)O[C@H]3C[C@H]3O[C@@H](CC[C@@H]1O2)C[C@@H](C)C3=C [ERIBULIN MESYLATE]
Not met

====

Measurement Notes: Fraction unbound in BALB/c mouse brain at 5 mg/kg, iv
Assay type: ADME, organism-based
Set-up: dose 5 mg/kg, route intravenous
Metric: fraction unbound
Answers are plain numbers.

Observe how each entry below is paired with its result.
- Compound: "C=C(C)CN1CCO[C@@H](C[C@H]2O[C@H]3C[C@H]4O[C@@H](CC[C@@H]5O[C@@H](CC[C@@]67C[C@H]8O[C@H]9[C@@H](O6)[C@H]6O[C@H](CC[C@@H]6O[C@H]9[C@H]8O7)CC(=O)C[C@@H]3[C@H]2OC)CC5=C)C[C@@H](C)C4=C)C1"
  fraction unbound: 0.024
- Compound: "C=C1C[C@@H]2CC[C@@]34C[C@H]5O[C@H]6[C@@H](O3)[C@H]3O[C@H](CC[C@@H]3O[C@H]6[C@H]5O4)CC(=O)C[C@@H]3[C@@H](OC)[C@@H](C[C@@H](CN4CCOCC4)OC)O[C@H]3C[C@H]3O[C@@H](CC[C@@H]1O2)C[C@@H](C)C3=C"
  fraction unbound: 0.113
- Compound: "C=C1C[C@@H]2CC[C@@]34C[C@H]5O[C@H]6[C@@H](O3)[C@H]3O[C@H](CC[C@@H]3O[C@H]6[C@H]5O4)CC(=O)C[C@@H]3[C@@H](OC)[C@@H](C[C@@H](CN4CC(C)CC(C)C4)OC)O[C@H]3C[C@H]3O[C@@H](CC[C@@H]1O2)C[C@@H](C)C3=C (some centres undefined)"
  fraction unbound: 0.034

Which fraction unbound reading was recorded for the compound "C=C1C[C@@H]2CC[C@@]34C[C@H]5O[C@H]6[C@@H](O3)[C@H]3O[C@H](CC[C@@H]3O[C@H]6[C@H]5O4)CC(=O)C[C@@H]3[C@@H](OC)[C@@H](CCCN4CCOCC4)O[C@H]3C[C@H]3O[C@@H](CC[C@@H]1O2)C[C@@H](C)C3=C" ?
0.101

====

Measurement Notes: Antiproliferative activity against human doxorubicin-resistant MES-SA/Dx5-Rx1 cells
Format: functional
Metric: pIC50
Answers are plain numbers, as −log10 of the molar value.

List pIC50 for every entry below, keeping the order given.
1. C=C1C[C@@H]2CC[C@@]34C[C@H]5O[C@H]6[C@@H](O3)[C@H]3O[C@H](CC[C@@H]3O[C@H]6[C@H]5O4)CC(=O)C[C@@H]3[C@@H](OC)[C@@H](C[C@@H](CN4CC(C)CC(C)C4)OC)O[C@H]3C[C@H]3O[C@@H](CC[C@@H]1O2)C[C@@H](C)C3=C (stereo partly drawn)
2. C=C1C[C@@H]2CC[C@@]34C[C@H]5O[C@H]6[C@@H](O3)[C@H]3O[C@H](CC[C@@H]3O[C@H]6[C@H]5O4)CC(=O)C[C@@H]3[C@@H](OC)[C@@H](C[C@@H](CN4CCC(C(F)(F)F)CC4)OC)O[C@H]3C[C@H]3O[C@@H](CC[C@@H]1O2)C[C@@H](C)C3=C
3. C=C1C[C@@H]2CC[C@@]34C[C@H]5O[C@H]6[C@@H](O3)[C@H]3O[C@H](CC[C@@H]3O[C@H]6[C@H]5O4)CC(=O)C[C@@H]3[C@@H](OC)[C@@H](CCNCC(F)F)O[C@H]3C[C@H]3O[C@@H](CC[C@@H]1O2)C[C@@H](C)C3=C
4. C=C1C[C@@H]2CC[C@@]34C[C@H]5O[C@H]6[C@@H](O3)[C@H]3O[C@H](CC[C@@H]3O[C@H]6[C@H]5O4)CC(=O)C[C@@H]3[C@@H](OC)[C@@H](C[C@@H](CN4CCOCC4)OC)O[C@H]3C[C@H]3O[C@@H](CC[C@@H]1O2)C[C@@H](C)C3=C
5. C=C(C)CN(CC)C[C@H](C[C@H]1O[C@H]2C[C@H]3O[C@@H](CC[C@@H]4O[C@@H](CC[C@@]56C[C@H]7O[C@H]8[C@@H](O5)[C@H]5O[C@H](CC[C@@H]5O[C@H]8[C@H]7O6)CC(=O)C[C@@H]2[C@H]1OC)CC4=C)C[C@@H](C)C3=C)OC
6. C=C1C[C@@H]2CC[C@@]34C[C@H]5O[C@H]6[C@@H](O3)[C@H]3O[C@H](CC[C@@H]3O[C@H]6[C@H]5O4)CC(=O)C[C@@H]3[C@@H](OC)[C@@H](CCN4CCC(C(F)(F)F)CC4)O[C@H]3C[C@H]3O[C@@H](CC[C@@H]1O2)C[C@@H](C)C3=C

1: 8.62; 2: 9.08; 3: 7.50; 4: 8.72; 5: 8.56; 6: 9.12
